# Test system: Human alphaherpesvirus 3
# Assay Comment: Antiviral activity against thymidine kinase deficient Varicella-Zoster virus 07-1 infected in HEL cells assessed as inhibition of virus plaque formation
# Assay type: functional, cell-based
# Condition Set: Human alphaherpesvirus 3, 07-1, HEL
pEC50: −log10 of the molar value.
Measurement Kind: pEC50

Determine from records and report pEC50 for `CC(=O)N(CCc1cn(C)c2ccccc12)Cc1cccc2ccccc12`
< 4.70

Determine from records and report pEC50 for `Cn1cc(CCN(CCc2ccc(-c3ccccc3)cc2)C(=O)c2ccccc2)c2ccccc21`
4.70

Determine from records and report pEC50 for O=c1[nH]c(=O)n([C@H]2C[C@H](O)[C@@H](CO)O2)cc1/C=C/Br [BRIVUDINE]
3.84 to 4.48
